// reported TGI for each item listed
- System: A498 renal
- Assay: NCI tumour cell line growth inhibition, 48 h

- Compound: "C[C@H](c1ccc(F)cc1CCCC(=O)O)N(c1cc(F)ccc1F)S(=O)(=O)c1ccc(Cl)cc1"
  Measurement Qualifier: "="
  TGI (µM): 57.6
- Compound: "Nc1nc(N)c(CCCCc2ccccc2)c(C=O)n1"
  Measurement Qualifier: ">"
  TGI (µM): 100
- Compound: "O=c1[nH]c(=O)c2ncn(-c3ccc([N+](=O)[O-])cn3)c2[nH]1"
  Measurement Qualifier: ">"
  TGI (µM): 100
- Compound: "CC(=O)C1=C(C)O[C@@H]2O[C@H](COCc3ccccc3)[C@@H](OCc3ccccc3)[C@H](O)[C@@H]2S1"
  Measurement Qualifier: "="
  TGI (µM): 71
- Compound: "N#Cc1c(N)oc(-c2ccc([N+](=O)[O-])cc2)c1C#N"
  Measurement Qualifier: "="
  TGI (µM): 53.5
- Compound: "COc1ccc2c(c1)Oc1cc(O)ccc1[C@H]2c1ccccc1C(=O)NC(C)c1ccccc1 (some centres not stated)"
  Measurement Qualifier: "="
  TGI (µM): 30.8
- Compound: "C=C(C)[C@@H](O)[C@H](O)C[C@H](C)C1CC[C@]2(C)C1=CC[C@@H]1[C@@]3(C)CC[C@@H](OC(C)=O)C(C)(C)[C@@H]3C[C@@H](OC3OC(COC(C)=O)C(O)C(O)C3O)[C@]12C (some centres not stated)"
  Measurement Qualifier: "="
  TGI (µM): 10.4
